Where do the numbers come from? From patent US10988478B1.

Consider the following compounds and their measured Ki readings.
target: human IRAK4 (Homo sapiens (Human), UniProt Q9NWZ3); assay: IRAK4 kinase inhibition, Transcreener fluorescence polarization ADP assay; conditions: recombinant full-length His6-IRAK4; 125 uM ATP; 90 min; Ki computed using ATP Km 642 uM
Sequence (Q9NWZ3 whole entry): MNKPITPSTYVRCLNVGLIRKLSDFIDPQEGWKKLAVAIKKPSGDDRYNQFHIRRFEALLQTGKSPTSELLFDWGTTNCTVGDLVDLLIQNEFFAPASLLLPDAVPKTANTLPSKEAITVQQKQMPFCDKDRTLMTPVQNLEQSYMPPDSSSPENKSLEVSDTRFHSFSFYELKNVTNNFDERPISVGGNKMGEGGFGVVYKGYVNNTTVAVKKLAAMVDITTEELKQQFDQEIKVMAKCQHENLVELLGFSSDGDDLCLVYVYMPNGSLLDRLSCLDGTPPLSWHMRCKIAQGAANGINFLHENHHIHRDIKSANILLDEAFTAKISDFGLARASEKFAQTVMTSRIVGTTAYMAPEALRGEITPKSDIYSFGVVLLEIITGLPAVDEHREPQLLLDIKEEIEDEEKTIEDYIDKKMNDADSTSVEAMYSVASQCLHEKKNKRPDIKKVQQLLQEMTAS
Write the number in nM without appending the unit.

Recorded Ki of CC(CC(C)(C)O)N1Cc2cc(NC(=O)c3cnn4cccnc34)c(N3CCOCC3)cc2C1=O (stereo in doubt) [Example 544] , please.
13

Recorded Ki of Cc1cnc2c(C(=O)Nc3cc4c(cc3N3CCC(C(C)(C)O)CC3)O[C@](C)(CO)C4)cnn2c1 , please.
2.7

Recorded Ki of O=C(Nc1cc2c(cc1N1CCOCC1)OC1(C2)CN(CC(F)F)C1)c1cnn2cccnc12 , please.
23

Recorded Ki of C[C@]1(C2CC2)Cc2cc(NC(=O)c3cnn4cccnc34)c(N3CCC(F)(CO)CC3)cc2O1 , please.
3.8

Recorded Ki of CC1(C)Cc2cc(NC(=O)c3cnn4cccnc34)c(N3CCN(CC(=O)NCC4CCCO4)CC3)cc2O1 (stereo not shown) , please.
53

Recorded Ki of CC1(C)Cc2cc(NC(=O)c3cnn4cccnc34)c(N3CCC4(CC3)CC(O)C4)cc2O1 , please.
2.5

Recorded Ki of O=C(Nc1cc2c(cc1N1CCC(CO)CC1)O[C@](CO)(C(F)(F)F)C2)c1cnn2cccnc12 , please.
5.2

###

Consider the following compounds and their measured pKi readings.
target: human IRAK4 (Homo sapiens (Human)); assay: IRAK4 kinase inhibition, Transcreener fluorescence polarization ADP assay; settings: recombinant full-length His6-IRAK4; 125 uM ATP; 90 min; Ki computed using ATP Km 642 uM
Units for pKi: none; it is -log10 of a concentration expressed in mol/L.

Compound: CC(C)N1Cc2cc(NC(=O)c3cnn4cccnc34)c(N3CCOCC3)cc2C1=O [Example 138]
pKi: 8.17
--
Compound: C[C@]1(CO)Cc2cc(NC(=O)c3cnn4cc(F)cnc34)c(N3CCN(CC(F)F)CC3)cc2O1 [Example 133]
pKi: 8.39
--
Compound: CC(C)(O)[C@]1(C)Cc2cc(NC(=O)c3cnn4cccnc34)c(O[C@H]3CC[C@H](O)CC3)cc2O1 [Example 314]
pKi: 7.19
--
Compound: CC1(C)CS(=O)(=O)c2cc(N3CCOCC3)c(NC(=O)c3cnn4cccnc34)cc2N1 [Example 403]
pKi: 6.17
--
Compound: CC(C)(O)[C@H](F)CN1Cc2cc(NC(=O)c3cnn4cc(Br)cnc34)c(N3CCOCC3)cc2C1=O [Example 269]
pKi: 8.82
--
Compound: C[C@H](O)[C@H](F)CN1Cc2cc(NC(=O)c3cnn4cccnc34)c(N3CCOCC3)cc2C1=O [Example 557]
pKi: 8.14

Attention now shifts to the item below.
Recorded pKi of C[C@@]1(CC#N)COc2cc(N3CCOCC3)c(NC(=O)c3cnn4cccnc34)cc2C1 [Example 519] , please.
7.41

###

biological target: UniProt:Q9NWZ3; assay: IRAK4 kinase inhibition, Transcreener fluorescence polarization ADP assay; details: recombinant full-length His6-IRAK4; 125 uM ATP; 90 min; Ki computed using ATP Km 642 uM
Metric: Ki (nM)
Write the number in nM without appending the unit.

Compound: C[C@]1(C(F)F)Cc2cc(NC(=O)c3cnn4cccnc34)c(N3CCOCC3)cc2O1
System: UniProt:Q9NWZ3
Metric: Ki
Readout Number: 6.2
//
Compound: CC1(C)Cc2cc(NC(=O)c3cnn4cccnc34)c(OC[C@H]3CCCN3CC(F)F)cc2O1
System: UniProt:Q9NWZ3
Metric: Ki
Readout Number: 760
//
Compound: CC(C)(O)[C@@]1(C)Cc2cc(NC(=O)c3cnn4cccnc34)c(N3CCC(CO)CC3)cc2O1
System: UniProt:Q9NWZ3
Metric: Ki
Readout Number: 6
//
Compound: CC1(C)Cc2cc(NC(=O)c3cnn4cccnc34)c(N3CC[C@@H](CO)C3)cc2O1
System: UniProt:Q9NWZ3
Metric: Ki
Readout Number: 12
//
Compound: CC1(C)Cc2cc(NC(=O)c3cnn4cccnc34)c(N3CCC(F)(CO)CC3)cc2O1
System: UniProt:Q9NWZ3
Metric: Ki
Readout Number: 1
//
Compound: COCC1CN(c2cc3c(cc2NC(=O)c2cnn4cccnc24)CC(C)(C)O3)CCO1 (centres unmarked)
System: UniProt:Q9NWZ3
Metric: Ki
Readout Number: 140
//
Compound: O=C(Nc1cc2c(cc1N1CCOCC1)C(=O)N(C[C@H]1CCC[C@H]1O)C2)c1cnn2cccnc12
System: UniProt:Q9NWZ3
Metric: Ki
Readout Number: 1.6

Recorded Ki of CC1(C)Cc2cc(NC(=O)c3cnn4cccnc34)c(OC[C@@H]3CCNC(=O)C3)cc2O1 , please.
29
